Reference source: patent US7879876B2

# tested system: MMP-14 (Homo sapiens)
# test summary: MMP-14 enzyme inhibition assay (coumarin-labelled peptide substrate)
# Type: biochemical
# setup conditions: @ 0.1 μM; read-out: percentage inhibition MMP14
Some molecules, each annotated with its measured inhibition at 0.1 µM.
Value expressed in %; do not type the unit.

Input: Find the recorded inhibition at 0.1 µM belonging to CC(C)(C)CC(CS(=O)(=O)N1CCc2cc(C(F)(F)F)ccc2C1)N(O)C=O (stereo not shown) and report it.
Output: 14

----------
# tested system: MMP-14 (Homo sapiens)
# test summary: MMP-14 enzyme inhibition assay (coumarin-labelled peptide substrate)
# Format: biochemical
# setup conditions: @ 5 μM; read-out: percentage inhibition MMP14
inhibition at 5 µM below 60% gives 0.0; inhibition at 5 µM at or above it gives 1.0.

Input: API: above_or_equal(metric=inhibition at 5 µM, cutoff=60%) for item O=CN(O)C(CCc1cccnc1)CS(=O)(=O)N1CCc2ccc(Cl)cc2C1 (stereo not drawn) [Example 86]
Output: 1.0

Input: API: above_or_equal(metric=inhibition at 5 µM, cutoff=60%) for item CCC(CC)C(CS(=O)(=O)N1CCc2cc(Cl)c(Cl)cc2C1)N(O)C=O (stereo not drawn) [Example 34]
Output: 1.0

Input: API: above_or_equal(metric=inhibition at 5 µM, cutoff=60%) for item O=CN(O)C(CS(=O)(=O)N1CCc2cc(C(F)(F)F)ccc2C1)C1CC1 (stereo not drawn) [Example 74]
Output: 1.0

Input: API: above_or_equal(metric=inhibition at 5 µM, cutoff=60%) for item O=CN(O)C(CS(=O)(=O)N1CCc2ccc(-c3ccsc3)cc2C1)C1CCCC1 (stereo not drawn) [Example 68]
Output: 1.0

Input: API: above_or_equal(metric=inhibition at 5 µM, cutoff=60%) for item O=CN(O)C(CS(=O)(=O)N1Cc2ccccc2C1)C1CC1 (stereo not drawn) [Example 72]
Output: 1.0

Input: API: above_or_equal(metric=inhibition at 5 µM, cutoff=60%) for item COc1cc2c(cc1OC)CN(S(=O)(=O)CC(C1CCCC1)N(O)C=O)CC2 (stereo not drawn) [Example 15]
Output: 0.0

Input: API: above_or_equal(metric=inhibition at 5 µM, cutoff=60%) for item CC(C)CC(CS(=O)(=O)N1CCc2ccc(Br)cc2C1)N(O)C=O (stereo not drawn) [Example 55]
Output: 1.0

Input: API: above_or_equal(metric=inhibition at 5 µM, cutoff=60%) for item O=CN(O)C(COCc1ccccc1)CS(=O)(=O)N1CCc2ccc(C(F)(F)F)cc2C1 (stereo not drawn) [Example 59]
Output: 0.0
